Data provenance is PubChem BioAssay AID2060897.

Tested on: 966289-007-R4-J1-PDC complex spheroid viability
Test: Anticancer human tumor 966289-007-R4-J1-PDC patient-derived pancreatic adenocarcinoma cell line growth inhibition [RAS]
Conditions: curve of first compound; second compound 0.3 µM
pIC50: −log10 of the molar value.
Form field: pIC50 (one value per entry).

MOLECULE	pIC50
CCc1c2c(nc3ccc(O)cc13)-c1cc3c(c(=O)n1C2)COC(=O)[C@]3(O)CC + CCn1c(-c2cccnc2C(C)OC)c2c3cc(ccc31)N1CCOC(CC(NC(=O)C(C(C)C)N(C)C(=O)C3(F)CCN(C(=O)C#CC(C)(C)N(C)C)CC3)C(=O)N3CCCC(N3)C(=O)OCC(C)(C)C2)C1	> 9.02

Any idea what pIC50 was measured for CCN1CCN(Cc2ccc(Nc3ncc(F)c(-c4cc(F)c5nc(C)n(C(C)C)c5c4)n3)nc2)CC1 + CCn1c(-c2cccnc2C(C)OC)c2c3cc(ccc31)N1CCOC(CC(NC(=O)C(C(C)C)N(C)C(=O)C3(F)CCN(C(=O)C#CC(C)(C)N(C)C)CC3)C(=O)N3CCCC(N3)C(=O)OCC(C)(C)C2)C1 ?
< 6.00

Any idea what pIC50 was measured for CC1(O)CCCC1n1c(=O)c(C(F)F)cc2cnc(NC3CCN(S(C)(=O)=O)CC3)nc21 (stereo not drawn) + CCn1c(-c2cccnc2C(C)OC)c2c3cc(ccc31)N1CCOC(CC(NC(=O)C(C(C)C)N(C)C(=O)C3(F)CCN(C(=O)C#CC(C)(C)N(C)C)CC3)C(=O)N3CCCC(N3)C(=O)OCC(C)(C)C2)C1 ?
6.97

###

System: 966289-007-R4-J1-PDC complex spheroid viability
Assay: Anticancer human tumor 966289-007-R4-J1-PDC cell line growth inhibition [RAS]; active means viability on the fitted dose curve at most 10% of control; inactive means the rest;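 further: spheroids exposed to agents for one week before readout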
Details: second compound 0.3 µM; first compound 0.1 µM
Respond using exactly one of the listed classes: active, inactive

Before answering, review these 3 worked examples.
COMPOUND	QUALITATIVE LABEL
CC(C)n1nc(-c2ccc3oc(N)nc3c2)c2c(N)ncnc21 + CCn1c(-c2cccnc2C(C)OC)c2c3cc(ccc31)N1CCOC(CC(NC(=O)C(C(C)C)N(C)C(=O)C3(F)CCN(C(=O)C#CC(C)(C)N(C)C)CC3)C(=O)N3CCCC(N3)C(=O)OCC(C)(C)C2)C1	inactive
Cc1nc(N2CCC3(CC2)COC(C)C3N)c(CO)nc1Sc1ccnc(N)c1Cl (centres undefined) + CCn1c(-c2cc(N3CCN(C)CC3)cnc2C(C)OC)c2c3cc(ccc31)-c1csc(n1)CC(NC(=O)C1CC1C)C(=O)N1CCCC(N1)C(=O)OCC(C)(C)C2	inactive
C=CC(=O)N1CCN(c2nc(OCC3CCCN3C)nc3c(F)c(-c4nc(N)cc(C)c4C(F)(F)F)c(Cl)cc23)C(C)C1 (centres undefined) + CCn1c(-c2cccnc2C(C)OC)c2c3cc(ccc31)N1CCOC(CC(NC(=O)C(C(C)C)N(C)C(=O)C3(F)CCN(C(=O)C#CC(C)(C)N(C)C)CC3)C(=O)N3CCCC(N3)C(=O)OCC(C)(C)C2)C1	inactive

Here is another compound to look at.
Would you mind telling me which call this test gave CC(=O)OC12COC1CC(O)C1(C)C(=O)C(O)C3=C(C)C(OC(=O)C(O)C(NC(=O)OC(C)(C)C)c4ccccc4)CC(O)(C(OC(=O)c4ccccc4)C21)C3(C)C (centres undefined) + CCn1c(-c2cccnc2C(C)OC)c2c3cc(ccc31)N1CCOC(CC(NC(=O)C(C(C)C)N(C)C(=O)C3(F)CCN(C(=O)C#CC(C)(C)N(C)C)CC3)C(=O)N3CCCC(N3)C(=O)OCC(C)(C)C2)C1 ?
active
